Reported Percent BCL6 remaining at maximal degradation (Ycon) by item:
# ASSAY SYSTEM: BCL6 (Homo sapiens)
# Construct: HiBiT-tag knocked into endogenous BCL6 locus using CRISPR; endogenous in cells; host or cells: DHL-4_BCL6_HiBiT cells (CRISPR knock-in)
# TEST METHOD NOTES: BCL6_HiBiT degradation assay (2 h)
# Assay type: cell-based
# CONDITION NOTES: DHL-4_BCL6_HiBiT cells, read-out: YCon (% remaining maximal effect)

Solved cases below.
C[C@@H]1CN(c2ncc(Cl)c(Nc3ccc4c(c3)CC(=O)N4CCN3CCOCC3)n2)CC[C@H]1Nc1ccc2c(C3CCC(=O)NC3=O)nn(C)c2c1 (some centres unmarked) [Example 101] = < 20%
C[C@@H]1CN(c2ncc(Cl)c(Nc3ccc4c(c3)CC(=O)N4CC(C)(F)F)n2)CC[C@H]1Nc1ccc2c([C@@H]3CCC(=O)NC3=O)nn(C)c2c1 (single isomer, unassigned) [Example 112] = < 20%
C[C@@H]1CN(c2ncc(Cl)c(Nc3ccc4c(c3)CC(=O)N4C)n2)CC[C@H]1N(C)c1ccc2c(C3CCC(=O)NC3=O)nn(C)c2c1 (some centres unmarked) [Example 73] = < 20%
C[C@@H]1CN(c2ncc(Cl)c(Nc3ccc4c(c3F)CC(=O)N4C)n2)CC[C@H]1Nc1ccc2c([C@H]3CCC(=O)NC3=O)nn(C)c2c1 (single isomer, unassigned) [Example 99] = < 20%

Continue with the compound presented below.
Please fill in: Percent BCL6 remaining at maximal degradation (Ycon) reported for C[C@H]1C[C@H](N(C)c2ccc3c(C4CCC(=O)NC4=O)nn(C)c3c2)CCN1c1ncc(Cl)c(Nc2ccc3c(c2)CC(=O)N3C)n1 (some centres unmarked) [Example 84] = > 60%
